- Study target: T1, human CD71 extracellular domain (human, UniProt P02786 89-760)
- T1 construct: also called hCD71; human CD71-ECD
- T1 sequence (P02786 89-760): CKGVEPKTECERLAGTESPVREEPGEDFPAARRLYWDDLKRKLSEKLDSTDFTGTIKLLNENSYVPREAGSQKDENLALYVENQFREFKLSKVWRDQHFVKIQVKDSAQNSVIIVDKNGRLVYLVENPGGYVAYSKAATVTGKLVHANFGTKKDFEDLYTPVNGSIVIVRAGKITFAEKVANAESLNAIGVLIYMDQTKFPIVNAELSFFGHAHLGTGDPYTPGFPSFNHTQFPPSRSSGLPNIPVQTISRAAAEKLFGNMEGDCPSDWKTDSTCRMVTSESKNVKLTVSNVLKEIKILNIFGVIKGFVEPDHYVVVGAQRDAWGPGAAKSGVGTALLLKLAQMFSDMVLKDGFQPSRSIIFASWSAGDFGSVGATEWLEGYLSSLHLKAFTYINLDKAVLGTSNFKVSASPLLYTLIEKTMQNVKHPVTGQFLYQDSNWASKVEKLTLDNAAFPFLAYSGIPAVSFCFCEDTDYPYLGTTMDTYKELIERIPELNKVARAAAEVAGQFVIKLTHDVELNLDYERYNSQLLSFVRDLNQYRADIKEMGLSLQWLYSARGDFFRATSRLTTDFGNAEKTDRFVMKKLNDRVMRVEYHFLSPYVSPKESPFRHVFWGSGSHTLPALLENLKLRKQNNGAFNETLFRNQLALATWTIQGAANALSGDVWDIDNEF
- Test name: primary ELISA; further: test concentration or dose not given here

Binder: CD71-binding FN3 domain of SEQ ID NO: 129 (designed binder) MGGSLPAPKNLVVSRVTEDSARLSWTAPDAAFDSFEIGYFENLYLGEAIVLTVPGSERSYDLTGLKPGTEYWVQIGGVKGGNWSAPLSAIFTT
RLU, RLU: 2.49e+06
//
Binder: CD71-binding FN3 domain of SEQ ID NO: 194 (designed binder) MSLPAPKNLVVSRVTEDSARLSWTAPDAAFDSFEIGYFENLYLGEAIVLTVPGSERSYDLTGLKPGTEYPVWIGGVKGGTWSVPLSTIFTT
RLU, RLU: 2.56e+06
//
Binder: CD71-binding FN3 domain of SEQ ID NO: 175 (designed binder) MSLPAPKNLVVSRVTEDSARLSWTAPDAAFDSFEIAYQELSLWGEAIVLTVPGSERSYDLTGLKPGTEYVVFIGGVKGGVWSVPLSAIFTT
RLU, RLU: 1.01e+06

Data provenance is patent US20260151494A1.
